Task for the reader: assign each of the following molecules its reported MBNL1 % splicing rescue at 1 μM.
- System: MBNL1 exon 5 inclusion in DM1 myotubes
- Assay overview: Myotube splicing rescue assay (MBNL1 exon 5 inclusion)
- Assay type: cell-based, human
- Measurement context: 1 μM, 48-hour incubation
Provide the reading as a plain figure in %.

Prompt: Report MBNL1 % splicing rescue at 1 μM for "CN(C)CCNC(=O)c1ccc(-c2nc3cc(-c4ccc5[nH]c(-c6ccc(C(=O)NCCN(C)CCCCc7cn(CCCNC(=O)CCC(=O)NCCCn8cc(CCCCN(C)CCNC(=O)c9ccc(-c%10nc%11cc(-c%12ccc%13[nH]c(-c%14ccc(C(=O)NCCN(C)C)cc%14)nc%13c%12)ccc%11[nH]%10)cc9)nn8)nn7)cc6)nc5c4)ccc3[nH]2)cc1"
Response: 3.9

Prompt: Report MBNL1 % splicing rescue at 1 μM for "N=C(N)NCCC(=O)Nc1ccc2nc(-c3ccc(-c4nc5ccc(NC(=O)CCNC(=N)N)cc5[nH]4)cc3)[nH]c2c1"
Response: 31.7

Prompt: Report MBNL1 % splicing rescue at 1 μM for "CN1CCN(CCNC(=O)c2ccc3nc(-c4ccc(-c5nc6ccc(C(=O)NCCN7CCCCC7)cc6[nH]5)cc4)[nH]c3c2)CC1"
Response: 6.1

Prompt: Report MBNL1 % splicing rescue at 1 μM for CN1CCCCC1COc1ccc(-c2nc3cc(-c4ccc5[nH]c(-c6ccc(O)cc6)nc5c4)ccc3[nH]2)cc1 (stereo not shown)
Response: 12.4

Prompt: Report MBNL1 % splicing rescue at 1 μM for "O=C(NCCN1CCCCC1)c1ccc2nc(-c3ccc(-c4nc5ccc(C(=O)NCCN6CCCCC6)cc5[nH]4)c(F)c3)[nH]c2c1"
Response: 5.2

Prompt: Report MBNL1 % splicing rescue at 1 μM for "CN1CCC(CNC(=O)c2ccc(-c3nc4cc(-c5ccc6[nH]c(-c7ccc(C(=O)NCC8CCN(C)CC8)cc7)nc6c5)ccc4[nH]3)cc2)CC1"
Response: −3.4

Prompt: Report MBNL1 % splicing rescue at 1 μM for "CN1CCC[C@H]1COc1ccc(-c2nc3cc(-c4ccc5[nH]c(-c6ccc(O)cc6)nc5c4)ccc3[nH]2)cc1"
Response: 1.1

meta.source: patent US10961202B2
